biological target: T1, Human SIRPαV2 (CAA71403.1), Extracellular Domain + His-Tag (human, UniProt P78324 31-373); experiment: SPR, antibody captured on Protein A/G, ECD-His analyte, 1:1 fit
T1 construct: also called huSIRPαV2; hSIRPαV2; not shown: His-Tag
T1 sequence (P78324 other isoform, or with tags, fused parts or gaps): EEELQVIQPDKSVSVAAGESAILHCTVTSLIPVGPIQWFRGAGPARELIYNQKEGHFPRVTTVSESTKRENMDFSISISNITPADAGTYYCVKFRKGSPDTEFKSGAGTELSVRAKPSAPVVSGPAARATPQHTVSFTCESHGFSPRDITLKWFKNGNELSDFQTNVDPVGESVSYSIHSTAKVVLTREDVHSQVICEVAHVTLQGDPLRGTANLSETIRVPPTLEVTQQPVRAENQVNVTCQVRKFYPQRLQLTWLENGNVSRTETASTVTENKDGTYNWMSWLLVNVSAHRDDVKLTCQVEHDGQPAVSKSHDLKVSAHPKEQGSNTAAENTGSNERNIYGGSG
VALUE KIND: kon (M⁻¹ s⁻¹)

- BINDER: "Antibody A13 (antibody, human IgG1, kappa, L234A L235A, V domains shown) VH: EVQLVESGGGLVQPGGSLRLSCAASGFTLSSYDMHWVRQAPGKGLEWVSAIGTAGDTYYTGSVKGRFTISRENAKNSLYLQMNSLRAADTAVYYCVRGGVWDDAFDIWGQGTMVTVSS VL: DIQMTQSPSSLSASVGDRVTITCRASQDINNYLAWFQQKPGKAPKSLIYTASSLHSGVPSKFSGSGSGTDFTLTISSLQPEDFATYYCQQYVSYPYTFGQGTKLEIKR"
  QUANTITATIVE READOUT: 760000
